Reference source: ChEMBL document CHEMBL1926506

- experiment notes: Antioxidant activity assessed as trolox equivalent of […]-induced radical scavenging activity at 0.5 to 10 uM measured every 60 sec for 4 hrs by ORAC fluorescence assay relative to trolox
- Assay type: functional
assay endpoint: Ratio

>>> readout_value("COc1ccc2cc3[n+](cc2c1OCCCOc1cccc(O)c1)CCc1cc2c(cc1-3)OCO2")
5.31
>>> readout_value("COc1ccc2cc3[n+](cc2c1OCCC(=O)NCCc1c[nH]c2ccc(C)cc12)CCc1cc2c(cc1-3)OCO2")
3.11
>>> readout_value("COc1ccc2[nH]cc(CCNC(C)=O)c2c1")
2.3
>>> readout_value("COc1ccc2cc3[n+](cc2c1OCCCCOc1ccc(O)cc1)CCc1cc2c(cc1-3)OCO2")
6.45
>>> readout_value("COc1ccc2cc3[n+](cc2c1OCCCCOc1cccc(O)c1)CCc1cc2c(cc1-3)OCO2")
5.3
>>> readout_value("COc1cc(/C=C/C(=O)OCCCOc2c(OC)ccc3cc4[n+](cc23)CCc2cc3c(cc2-4)OCO3)ccc1O")
3.43
>>> readout_value("COc1ccc2[nH]cc(CCNC(=O)CCOc3c(OC)ccc4cc5[n+](cc34)CCc3cc4c(cc3-5)OCO4)c2c1")
3.61
>>> readout_value("COc1cc(/C=C/C(=O)O)ccc1O [FERULATE]")
3.13
>>> readout_value("COc1ccc2cc3[n+](cc2c1OCCCOc1ccccc1O)CCc1cc2c(cc1-3)OCO2")
3.41
>>> readout_value("COc1ccc2cc3[n+](cc2c1OCCC(=O)NCCc1c[nH]c2ccccc12)CCc1cc2c(cc1-3)OCO2")
3.78
>>> readout_value("COc1ccc2cc3[n+](cc2c1OCCCOc1ccc(O)cc1)CCc1cc2c(cc1-3)OCO2")
9.54
>>> readout_value("COc1ccc2cc3[n+](cc2c1OCCCCOc1ccccc1O)CCc1cc2c(cc1-3)OCO2")
3.54
